# DC50 annotations
- target or system: Androgen Receptor (Homo sapiens, UniProt P10275)
- Construct: endogenous in cells; host or cells: VCaP cells
- Sequence (P10275 whole entry): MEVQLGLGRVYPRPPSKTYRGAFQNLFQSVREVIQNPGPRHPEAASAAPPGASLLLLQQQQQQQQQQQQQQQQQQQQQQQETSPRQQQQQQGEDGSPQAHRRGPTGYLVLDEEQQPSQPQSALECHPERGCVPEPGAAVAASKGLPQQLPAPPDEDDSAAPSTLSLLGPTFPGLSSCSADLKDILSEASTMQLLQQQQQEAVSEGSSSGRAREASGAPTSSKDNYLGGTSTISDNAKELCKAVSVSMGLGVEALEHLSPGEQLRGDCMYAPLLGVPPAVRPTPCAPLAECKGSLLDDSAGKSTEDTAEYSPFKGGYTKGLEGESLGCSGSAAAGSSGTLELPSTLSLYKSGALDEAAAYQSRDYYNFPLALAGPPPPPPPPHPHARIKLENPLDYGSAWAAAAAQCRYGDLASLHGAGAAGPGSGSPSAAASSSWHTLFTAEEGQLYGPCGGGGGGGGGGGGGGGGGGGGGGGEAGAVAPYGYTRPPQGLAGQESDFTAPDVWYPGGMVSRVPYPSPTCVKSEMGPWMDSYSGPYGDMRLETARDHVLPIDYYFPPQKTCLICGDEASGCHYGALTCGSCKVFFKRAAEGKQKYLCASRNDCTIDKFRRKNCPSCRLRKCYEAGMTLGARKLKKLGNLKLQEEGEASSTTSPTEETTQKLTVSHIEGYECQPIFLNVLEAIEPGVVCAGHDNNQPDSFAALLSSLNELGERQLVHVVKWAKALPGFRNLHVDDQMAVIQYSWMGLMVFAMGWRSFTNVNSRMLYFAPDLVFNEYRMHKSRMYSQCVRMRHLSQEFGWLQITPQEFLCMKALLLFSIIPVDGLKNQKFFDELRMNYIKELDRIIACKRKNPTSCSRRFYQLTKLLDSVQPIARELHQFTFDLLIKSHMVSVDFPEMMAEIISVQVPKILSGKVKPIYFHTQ
- protocol details: Androgen Receptor ELISA assay (PathScan AR ELISA) in VCaP cells: AR degradation, Dmax and DC50
- Assay type: cell-based
- assay setup: VCaP cells; Table 36; read-out: VCaP DC50

{"compound": "Cc1ncsc1-c1ccc([C@H](C)NC(=O)[C@@H]2C[C@@H](O)CN2C(=O)[C@@H](NC(=O)[C@H](CO)N2CCN(CCOc3ccc(C(=O)N[C@H]4C(C)(C)[C@H](Oc5ccc(C#N)c(Cl)c5)C4(C)C)cc3)CC2)C(C)(C)C)cc1 [Example 655]", "DC50": "> 501 nM"}

Task: Would you kindly share the measured DC50 for Cc1ncsc1-c1ccc([C@H](NC(=O)[C@@H]2C[C@@H](O)CN2C(=O)[C@@H](NC(=O)CN2CCN(CCCc3ccc(C(=O)N[C@H]4C(C)(C)[C@H](Oc5ccc(C#N)c(C(F)(F)F)c5)C4(C)C)cc3)CC2)C(C)(C)C)C2COC2)cc1 [Example 712] ?
Result: > 501 nM

Task: Moving on to Cc1ncsc1-c1ccc([C@H](C)NC(=O)[C@@H]2C[C@@H](O)CN2C(=O)[C@@H](NC(=O)CN2CCN(CCCc3ccc(C(=O)N[C@H]4C(C)(C)[C@H](Oc5ccc(C#N)c(Cl)c5)C4(C)C)cn3)CC2)C(C)(C)C)cc1 [Example 837]
Result: < 50 nM

Task: Cc1ncsc1-c1ccc([C@H](C)NC(=O)[C@@H]2C[C@@H](O)CN2C(=O)[C@@H](c2cc(CCCN3CCN(c4ccc(C(=O)N[C@H]5C(C)(C)[C@H](Oc6ccc(C#N)c(Cl)c6)C5(C)C)cn4)CC3)no2)C(C)C)cc1 [Example 819] ?
Result: < 50 nM
